Every entry's value here was drawn from ChEMBL document CHEMBL1687913.

protocol-description: Toxicity in human erythrocytes assessed as hemolysis at 3 uM after 40 mins
Type: cell-based, Erythrocyte
applied-conditions: read-out: Activity
Where a SMILES comes first, the peptide text is derived from it.
The following compounds are listed with their measured hemolysis at 40 min, 3 µM values.
Answer in %, number only, no unit symbol.

Report hemolysis at 40 min, 3 µM for CC[C@H](C)[C@H](NC(=O)[C@H](CCCNC(=N)N)NC(=O)CNC(=O)[C@H](CC(C)C)NC(=O)[C@H](Cc1ccccc1)NC(=O)[C@H](CCCCN)NC(=O)[C@H](CO)NC(=O)[C@H](Cc1ccccc1)NC(=O)[C@H](Cc1c[nH]c2ccccc12)NC(=O)[C@H](CCC(N)=O)NC(=O)[C@@H](NC(=O)[C@@H](N)Cc1ccccc1)C(C)C)C(=O)N[C@@H](CC(C)C)C(N)=O please.
13

Let us now turn to CC(C)C[C@H](NC(=O)[C@H](Cc1c[nH]c2ccccc12)NC(=O)[C@H](CCCNC(=N)N)NC(=O)CNC(=O)[C@H](CC(C)C)NC(=O)[C@H](CC(C)C)NC(=O)[C@H](CCCCN)NC(=O)[C@H](CO)NC(=O)[C@H](CC(C)C)NC(=O)[C@H](Cc1c[nH]c2ccccc12)NC(=O)[C@H](CCC(N)=O)NC(=O)[C@H](CC(C)C)NC(=O)[C@@H](N)CC(C)C)C(N)=O (H-LLQWLSKLLGRWL-NH2)
13

Let us now turn to CC[C@H](C)[C@H](NC(=O)[C@H](CCCNC(=N)N)NC(=O)CNC(=O)[C@H](CC(C)C)NC(=O)[C@H](Cc1ccccc1)NC(=O)[C@H](CCCNC(=N)N)NC(=O)[C@H](CO)NC(=O)[C@H](Cc1ccccc1)NC(=O)[C@H](Cc1c[nH]c2ccccc12)NC(=O)[C@H](CCCNC(=N)N)NC(=O)[C@@H](NC(=O)[C@@H](N)Cc1ccccc1)C(C)C)C(=O)N[C@@H](CC(C)C)C(N)=O (H-FVRWFSRFLGRIL-NH2)
14

Let us now turn to CC(C)C[C@H](NC(=O)[C@H](CC(C)C)NC(=O)[C@H](CCCNC(=N)N)NC(=O)CNC(=O)[C@H](CC(C)C)NC(=O)[C@H](CC(C)C)NC(=O)[C@H](CCCCN)NC(=O)[C@H](CO)NC(=O)[C@H](CC(C)C)NC(=O)[C@H](Cc1c[nH]c2ccccc12)NC(=O)[C@H](CCC(N)=O)NC(=O)[C@H](CC(C)C)NC(=O)[C@@H](N)CC(C)C)C(N)=O (H-LLQWLSKLLGRLL-NH2)
9

Let us now turn to CC[C@H](C)[C@H](NC(=O)[C@H](CCCNC(=N)N)NC(=O)[C@H]1CCCN1C(=O)[C@H](CC(C)C)NC(=O)[C@H](Cc1ccccc1)NC(=O)[C@H](CCCCN)NC(=O)[C@H](CO)NC(=O)[C@H](Cc1ccccc1)NC(=O)[C@H](Cc1c[nH]c2ccccc12)NC(=O)[C@@H]1CCCN1C(=O)[C@@H](NC(=O)[C@@H](N)Cc1ccccc1)C(C)C)C(=O)N[C@@H](CC(C)C)C(N)=O
1.5
